- ASSAY_DETAILS: qHTS Assay for Lipid Storage Modulators (AID 1519); also: % is scaled to controls: 0 for no effect and ±100 for the full control effect
- CONDITION: Drosophila S3 cells, BODIPY lipid droplet/cell ratio, laser cytometry; at 57.5 µM (top of the series); cells loaded with oleic acid
- Procedure: NIH Molecular Libraries Probe Production Centers Network [MLPCN] NIH Chemical Genomics Center [NCGC] Assay Submitter (PI): Beller, Mathias; Max-Planck-Institut fur Biophysikalische Chemie […] We dispensed 4 uL of cells at 1.25 x 10^6 cells/mL into LoBase Aurora COC 1,536-well plates (black walled, clear bottom) with a bottle-valve solenoid-based dispenser (Aurora) to obtain 5,000 cells/well. […] The ratio of the total intensity in PMT channel 1 over total intensity of channel 3 was also calculated. […]
Records with an inconclusive call do not appear.
QUANTITY: activity change, negative = inhibition (%)
Give a bare numeral; the unit % is implied.

Ask | Quick check: activity change, negative = inhibition of `COc1cc(O)c(C(=O)c2ccccc2)cc1O` ?
Reply | 2.59

Ask | Next up: `CON`
Reply | 4.31

Ask | Queued: CC(=O)N1CCCC1C(=O)O (configuration not stated)
Reply | 7.19

Ask | Now give it for `N[C@H](Cc1ccc(O)cc1)C(=O)O` too.
Reply | 2.68

Ask | Also need O=C(O)C(O)C(O)C(O)C(O)C(=O)O (configuration not stated) , thanks.
Reply | 5

Ask | Now try CNC(CC(=O)O)C(=O)O (configuration not stated) .
Reply | 0.835

Ask | Input CC1(C)CC[C@]2(C)CC[C@@]3(C)C(=CCC4[C@@]5(C)CCC(O)C(C)(C)C5CC[C@@]43C)C2C1 (some centres not stated)
Reply | 3.54

Ask | Here is the next compound: C=CC(C1=CC(=O)C=CC1=O)c1ccccc1 (configuration not stated)
Reply | 7.07

Ask | What do you get for CCOC(=O)OC(C)OC(=O)C1N2C(=O)C(NC(=O)C(N)c3ccccc3)C2SC1(C)C (configuration not stated) ?
Reply | 6.11

Ask | COc1ccc2cc1Oc1ccc(cc1)CC1c3c(cc4c(c3Oc3cc5c(cc3OC)CCN(C)C5C2)OCO4)CCN1C (configuration not stated) , same question.
Reply | 10.7

Ask | Also need `CC(C)=CCc1c(O)cc(C)oc1=O` , thanks.
Reply | 0.619

Ask | And C#C[C@]1(O)CCC2C3CCC4=Cc5oncc5C[C@@]4(C)C3CC[C@@]21C (some centres not stated) ?
Reply | 9.19
